Tested on: HL-60(TB) leukemia
Assay: NCI tumour cell line growth inhibition, 48 h
Consider the following compounds and their measured TGI readings.
Assay readout: TGI (µM)

> print(dat)
                                   compound  assay.readout  comparison.sign  experimental.result
1  Fc1cc(Nc2ccc3c(OCCCN4CCOCC4)cccc3n2)ccc1Cl            TGI                =                 7.77
2  C=C1C(=O)C23C(CC(OC(C)=O)C1[C@@H]2OC(C)=O)C1(C)C(OC(C)=O)CCC(C)(C)C1C[C@@H]3OC(C)=O (stereo not given in full)            TGI                =                 2.51
3         CCOc1ccc(N2C(N)=NC(N)=NC2(C)C)cc1            TGI                >                  100
4  O=C(O)c1cc2c(cc1CC(Cc1ccccc1)C(=O)O)CCC2 (stereo not given)            TGI                >                  100
5            O=C1CCC(c2ccccc2)(c2ccccc2)CC1            TGI                =                   81
